Quick reference for inhibition among some compounds
Assay: drug combination toxicity in non-malignant astrocytes – cell-based, BGB or cisplatin IC20 combos, cytotoxicity control for chromothriptic childhood tumor combination screen (AID 1671460);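 further: cells exposed to compounds for 96 hours before viability readout; 0% = vehicle and 100% = killing control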
Settings: Human astrocytes, viability inhibition, drug combinations; measured here: combo with BGB IC20; at 0.5 µM; stronger effect = higher value
Numeric only. Scale: %

>  <compound>
O=c1ccn(C2CC(O)C(CO)O2)c(=O)[nH]1 (stereo unspecified)

>  <obs.value>
-6.85

$$$$
>  <compound>
COc1ccccc1S(=O)(=O)Nc1ccc2c(c1)CN(C)C(=O)N2

>  <obs.value>
13.1

$$$$
>  <compound>
Cc1ccc(NC(=O)CCCCCC(=O)Nc2ccccc2N)cc1

>  <obs.value>
-7.99

$$$$

**Query** Recorded inhibition of Cc1cc(C#N)cc(C)c1Oc1nc(Nc2ccc(C#N)cc2)nc(N)c1Br , please.
**Result** 14

**Query** Which inhibition is reported for this compound? COc1nc(N)nc2c1ncn2[C@@H]1O[C@H](CO)[C@@H](O)[C@H]1O
**Result** -1.7

**Query** Query (compound): CC1OC(n2cc(F)c(=O)[nH]c2=O)C(O)C1O (stereo unspecified) ; field requested: inhibition
**Result** -17.6

---

Consider the following compounds and their measured fold change readings.
Test: viability loss with induced miR-34 in A549 – imaging, A549 dox-inducible miR-34, nuclei and caspase counts, primary screen (AID 1347080)
Conditions: A549 miR-34 inducible, Hoechst nuclei count, 48 h; measured here: relative caspase fold change +Dox/-Dox
Field format: numeric only.

**Query** What does the data say about its fold change? Entry: N=C(N)c1ccccc1
**Result** 1.99

**Query** Using the record for CC[n+]1c(/C=C/C=C2/N(C)c3ccccc3C2(C)C)sc2ccccc21 , report its fold change.
**Result** 0.865

**Query** Fill in: fold change of COc1cc(C=CC(=O)O)ccc1O is ___
**Result** 0.764

**Query** Form field: reported fold change of O=C(c1ccccc1)c1ccc2nc(NC(=O)c3csc(C4CCN(c5ncnc6ccsc56)CC4)n3)[nH]c2c1
**Result** 0.341

**Query** Return reported fold change; argument: CC(=O)OC1CC2CCC3C(CCC4(C)C3CC([N+]3(C)CCCCC3)C4OC(C)=O)C2(C)CC1[N+]1(C)CCCCC1 (stereo not given)
**Result** 2.7

**Query** Give its fold change value. Item: CCCC(=O)NCCc1c2n(c3ccc(OC)cc13)CCCc1ccccc1-2
**Result** 0.293

**Query** Which fold change value belongs to COc1ccc(C(=O)/C(Cc2cc(OC)c(OC)c(OC)c2)=C(\C(=O)O)c2ccc3c(c2)OCO3)cc1 ?
**Result** 1.24

**Query** Endpoint output: fold change of COCC(NC(=O)c1cnc(C)s1)C(=O)NC(COC)C(=O)NC(Cc1ccccc1)C(=O)C1(C)CO1 (stereo not given) . Value?
**Result** 1.09

**Query** Return reported fold change; argument: CCCCCCCCCCCCC/C=C/[C@@H](O)[C@H](CO)NC(=O)CCCCCCCCCCCCCCC
**Result** 1.04

**Query** I have this compound here, Cc1ccccc1-n1c(Cn2nc(-c3cccc(O)c3)c3c(N)ncnc32)nc2cccc(C)c2c1=O , and I need its recorded fold change.
**Result** 0.801

**Query** I am curious: what fold change value has been reported for [N-]=[N+]=Nc1ccc(C(=O)CSC[C@H](NC(=O)CC[C@H](N)C(=O)O)C(=O)NCC(=O)O)cc1 ?
**Result** 1.4

**Query** Look at this compound and give its reported fold change. Cc1cccc2c(C(=O)N3C4CCCCC3CCC4)cc(-c3cncnc3)nc12
**Result** 1.14

---

Experiment: growth inhibition, single agent or in combination, cell-based, chromothripsis tumors, cisplatin or BGB combos (AID 1671449);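 further: cells exposed for 96 hours; 0% = vehicle DMSO and 100% = killing by high DMSO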
Settings: LFS_MB_P medulloblastoma cells, measured here: combination with cisplatin, at 0.5 µM, stronger effect = higher value
readout: inhibition (%)
Write down the numeric answer in % and omit the unit.

>  <molecule>
NC(=O)c1cccc2cn(-c3ccc(C4CCCNC4)cc3)nc12 (stereo unspecified)

>  <inhibition [%]>
-37.4

$$$$
>  <molecule>
CC(C=CC(=O)NO)=CC(C)C(=O)c1ccc(N(C)C)cc1 (stereo unspecified)

>  <inhibition [%]>
130

$$$$
>  <molecule>
CON=C1CN(c2nc3c(cc2F)c(=O)c(C(=O)O)cn3C2CC2)CC1CN (stereo unspecified)

>  <inhibition [%]>
-40.3

$$$$
>  <molecule>
Cc1cc(C#N)cc(C)c1Oc1nc(Nc2ccc(C#N)cc2)nc(N)c1Br

>  <inhibition [%]>
-19.3

$$$$
>  <molecule>
Cc1ccc([N+](=O)[O-])cc1S(=O)(=O)N(C)/N=C\c1cnc2ccc(Br)cn12

>  <inhibition [%]>
56.3

$$$$
>  <molecule>
C[C@H](NC(=O)c1ccccc1N=Cc1c(O)ccc2ccccc12)c1ccccc1

>  <inhibition [%]>
-57.7

$$$$
>  <molecule>
C=C(C)C1CCC2(C(=O)O)CCC3(C)C(CCC4C5(C)CCC(O)C(C)(C)C5CCC43C)C12 (stereo unspecified)

>  <inhibition [%]>
-45.1

$$$$
>  <molecule>
CC(C)OC(=O)[C@H](C)NP(=O)(OC[C@H]1O[C@@H](n2ccc(=O)[nH]c2=O)C(C)(F)[C@@H]1O)Oc1ccccc1 (stereo partly specified)

>  <inhibition [%]>
-3.91

$$$$

We next turn to a different molecule, shown below.
**Query** Item CC(C)(C#N)c1ccc(N2C(=O)OCc3cnc4ccc(-c5cnc6ccccc6c5)cc4c32)cc1 has what recorded inhibition?
**Result** -37.5

---

Assay: antimalarial activity against Dd2 strain (AID 2302);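 further: 0% = DMSO untreated growth and 100% = chloroquine plus artemisinin killed control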
Conditions: P. falciparum Dd2 in RBCs, LDH growth readout, 72 h; at 2 µM
The source made the active and inactive calls.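 How the source made its calls: active means growth inhibition above 50% at the single 2 µM test dose, taken to imply half-maximal potency below 2 µM; inactive means the rest.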
Respond using exactly one of the listed classes: YES (active), NO (inactive)

>  <compound>
CCCCCC(C)C(C)c1cc(O)c2c(c1)OC(C)(C)CC2=Cc1ccncc1 (stereo not given)

>  <classification>
YES

$$$$
>  <compound>
CN(C)c1nc(NN=Cc2cc(Cl)ccc2O)nc(Nc2ccc(F)cc2)n1

>  <classification>
NO

$$$$

**Query** Recorded test outcome, item ON=C1CCc2cc(-c3nc(-c4cccc(OCCNCc5ccc(F)cc5)c4)[nH]c3-c3ccncc3)ccc21
**Result** YES

**Query** Which outcome was assigned to O=C(/C=C/c1ccc(Cl)c(Cl)c1)NCCCCCN1CC[C@H](c2c[nH]c3ccccc23)[C@H](O)C1 in this test?
**Result** NO

**Query** What is the recorded call for this compound in the test? CC(=NO)C1=C(O)C(c2ccccc2)N(c2ccccc2)C1=O (stereo not given)
**Result** NO

**Query** Any idea what this test logged for N=C(N)c1ccc(C=Cc2ccc(C(=N)N)cc2O)cc1 ?
**Result** YES

**Query** Entry CN(C)C(=S)NN=Cc1cccc(O)c1O : call = ?
**Result** YES

**Query** Per the assay record, what outcome was assigned to c1cc2nc(CCCCc3nc4ccc(C5=N[C@H]6CCCC[C@H]6N5)cc4[nH]3)[nH]c2cc1C1=N[C@H]2CCCC[C@H]2N1 ?
**Result** YES

**Query** Would you mind telling me which call this test gave CN(C)c1nc(NCc2ccccc2)nc(NN=Cc2cc([N+](=O)[O-])ccc2O)n1 ?
**Result** YES

**Query** Record request — test call for O=C(NC=Nc1cc([N+](=O)[O-])c(-c2cccnc2)n1-c1ccc(O)cc1)c1ccccc1
**Result** YES

---

Assay: compounds altering HSF1 focus formation in cells – imaging, Selleck Cancer Library (AID 1347162)
Details: human cells, HSF1 nuclear foci imaging, at 10 µM; measured here: HSF1 foci SSMD mean
readout: SSMD

For orientation, consider the following solved cases.
>  <smiles.string>
N#CC[C@@H](C1CCCC1)n1cc(-c2ncnc3[nH]ccc23)cn1

>  <readout>
SSMD

>  <obs.value>
2.05

$$$$
>  <smiles.string>
COC(=O)[C@H](CCCN=C(N)N)NS(=O)(=O)c1ccc(C)cc1

>  <readout>
SSMD

>  <obs.value>
1.44

$$$$

**Query** I would be grateful if you could share the reported SSMD for CO[C@H]1C[C@@H]2CC[C@@H](C)[C@@](O)(O2)C(=O)C(=O)N2CCCC[C@H]2C(=O)O[C@H]([C@@H](C)C[C@@H]2CC[C@@H](OCCO)[C@H](OC)C2)CC(=O)[C@H](C)/C=C(\C)[C@@H](O)[C@@H](OC)C(=O)[C@H](C)C[C@H](C)/C=C/C=C/C=C/1C .
**Result** 2.84

**Query** Would you kindly share the measured SSMD for N[C@@H]1CCCC[C@H]1N.O=C(O)C(=O)O.[Pt] ?
**Result** 1.36

**Query** Consider the compound shown here: C=C1/C(=C/C=C2\CCC[C@]3(C)[C@@H]([C@H](C)/C=C/[C@@H](C)C(C)C)CC[C@@H]23)C[C@@H](O)C[C@@H]1O What is its recorded SSMD?
**Result** 1.3

**Query** Please report the recorded SSMD for CO[C@H]1/C=C\C=C(/C)C(=O)NC2=CC(=O)C(NCCN(C)C)=C(C[C@@H](C)C[C@H](OC)[C@H](O)[C@@H](C)/C=C(\C)[C@@H]1OC(N)=O)C2=O .
**Result** 3.16

**Query** Name the reported SSMD value associated with the compound O=C1Nc2ccc(-c3cccnc3)cc2/C1=C/c1ccc[nH]1
**Result** -1.39
